testSystem: carbonic anhydrase II (CAII) (Homo sapiens)
protocolSummary: Wilbur-Anderson electrometric CO2 hydration assay with recombinant human CAII
property: IC50 (nM)
Return type: number; implicit unit nM.

Query: Name the reported IC50 value associated with the compound CC(=O)Nc1ccc(CC(=O)O)cc1 [actarit]
Response: 422
